Biological target: hERG channels (Homo sapiens (Human), UniProt Q12809)
Sequence (Q12809 whole entry): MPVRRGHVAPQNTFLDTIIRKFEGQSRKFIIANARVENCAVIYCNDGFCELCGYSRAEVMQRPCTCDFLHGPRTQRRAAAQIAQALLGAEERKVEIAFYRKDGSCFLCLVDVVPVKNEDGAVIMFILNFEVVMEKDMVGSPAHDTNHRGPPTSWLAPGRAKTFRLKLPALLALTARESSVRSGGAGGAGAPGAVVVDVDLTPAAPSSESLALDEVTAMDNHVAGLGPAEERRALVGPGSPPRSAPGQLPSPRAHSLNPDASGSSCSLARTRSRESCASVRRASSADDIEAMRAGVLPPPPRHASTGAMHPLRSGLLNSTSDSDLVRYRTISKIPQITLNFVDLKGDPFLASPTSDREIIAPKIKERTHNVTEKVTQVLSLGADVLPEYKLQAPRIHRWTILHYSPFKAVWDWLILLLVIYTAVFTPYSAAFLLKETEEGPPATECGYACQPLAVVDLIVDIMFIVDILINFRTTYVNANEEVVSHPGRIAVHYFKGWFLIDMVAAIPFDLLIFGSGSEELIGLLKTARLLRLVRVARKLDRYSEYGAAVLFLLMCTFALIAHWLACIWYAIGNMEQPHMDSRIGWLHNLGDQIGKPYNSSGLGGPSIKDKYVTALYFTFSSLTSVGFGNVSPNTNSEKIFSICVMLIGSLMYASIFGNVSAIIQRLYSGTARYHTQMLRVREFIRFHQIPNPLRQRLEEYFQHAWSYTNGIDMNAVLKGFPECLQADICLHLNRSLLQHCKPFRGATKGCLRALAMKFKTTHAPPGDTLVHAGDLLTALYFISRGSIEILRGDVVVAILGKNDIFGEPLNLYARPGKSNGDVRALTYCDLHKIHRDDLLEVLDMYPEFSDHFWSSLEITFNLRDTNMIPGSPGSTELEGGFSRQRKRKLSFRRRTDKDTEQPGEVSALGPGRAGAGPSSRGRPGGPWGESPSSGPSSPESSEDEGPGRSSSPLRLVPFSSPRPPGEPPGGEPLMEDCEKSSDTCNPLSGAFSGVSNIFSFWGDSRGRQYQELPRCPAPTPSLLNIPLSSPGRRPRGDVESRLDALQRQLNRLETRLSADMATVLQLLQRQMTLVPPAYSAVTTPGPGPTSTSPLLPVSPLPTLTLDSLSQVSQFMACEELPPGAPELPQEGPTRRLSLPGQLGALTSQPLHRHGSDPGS
Assay: cell-based
Type: cell-based
Conditions: human, 30 μM
Method: Whole-cell patch clamp technique was used to record hERG current. A cell suspension was added to a 35 mm Petri dish, and the dish was then placed on an inverted microscope stage. After the adherence of cells, they were perfused with extracellular fluid at a flow rate of 1-2 mL/min. A glass microelectrode was drawn by a microelectrode puller in two steps, and the pipette tip resistance was between 2-5 MΩ. […]
MEASUREMENT_KIND: Inhibitory effect on hERG current at the highest test concentration

STRUCTURE | RESULT
O=C(O)CNC(=O)c1nc(Br)c2nc(Oc3ccccc3)ccc2c1O | far from the IC50 value
O=C(O)CNC(=O)c1nc(Cl)c2nc(Oc3ccccc3Cl)ccc2c1O | far from the IC50 value
O=C(O)CNC(=O)c1nc(Br)c2nc(Oc3ccccc3Cl)ccc2c1O | far from the IC50 value

* * *

Molecular target: hERG channels (Homo sapiens (Human), UniProt Q12809)
Experiment: cell-based
Format: cell-based
Conditions: human, 30 μM
MEASUREMENT_KIND: Inhibitory effect on hERG current at the highest test concentration

Answered examples (4):
STRUCTURE | RESULT
O=C(O)CNC(=O)c1nc(Cl)c2nc(Oc3cccc(Cl)c3)ccc2c1O | far from the IC50 value
O=C(O)CNC(=O)c1nc(Br)c2nc(Oc3cccc(Cl)c3)ccc2c1O | far from the IC50 value
O=C(O)CNC(=O)c1nc(Cl)c2nc(Oc3ccc(Cl)cc3)ccc2c1O | far from the IC50 value
O=C(O)CNC(=O)c1nc(Cl)c2nc(Oc3ccccc3)ccc2c1O | far from the IC50 value

// switching to the query compound
Field request: Inhibitory effect on hERG current at the highest test concentration | item: O=C(O)CNC(=O)c1nc(Br)c2nc(Oc3ccc(Cl)cc3)ccc2c1O
far from the IC50 value

* * *

Target: PHD1 (Homo sapiens (Human), UniProt Q96KS0)
Sequence (Q96KS0 whole entry): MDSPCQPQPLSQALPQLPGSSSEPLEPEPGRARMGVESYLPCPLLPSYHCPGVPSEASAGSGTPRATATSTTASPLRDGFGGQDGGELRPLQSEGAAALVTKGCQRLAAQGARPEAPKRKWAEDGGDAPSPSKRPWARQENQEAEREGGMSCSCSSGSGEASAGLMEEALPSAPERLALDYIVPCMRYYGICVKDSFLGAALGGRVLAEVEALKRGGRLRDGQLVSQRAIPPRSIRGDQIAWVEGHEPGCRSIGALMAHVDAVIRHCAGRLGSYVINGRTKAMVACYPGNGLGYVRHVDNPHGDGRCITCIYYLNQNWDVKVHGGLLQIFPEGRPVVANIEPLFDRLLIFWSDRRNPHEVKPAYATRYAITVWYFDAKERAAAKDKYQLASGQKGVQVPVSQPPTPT
Experiment: PHD enzyme assay (Eu-VBC TR-fluorescence)
Format: biochemical
MEASUREMENT_KIND: log10 IC50 (log10 of the value in nM)
Reminder: these figures are log10 of reported IC50, in nM before transformation.

Solved entries:
MOLECULE | log10 IC50
O=C(O)CNC(=O)c1nc(Cl)c2nc(Oc3ccccc3)ccc2c1O | 1.67
O=C(O)CNC(=O)c1nc(Cl)c2cc(Oc3ccccc3)ccc2c1O [Comparative Example 1, reference compound] | 2.44
O=C(O)CNC(=O)c1ncc2nc(Oc3ccccc3)ccc2c1O [Comparative Example 2, reference compound] | 2.53
O=C(O)CNC(=O)c1nc(Br)c2cc(Oc3ccccc3)ccc2c1O [Comparative Example 3, reference compound] | 2.66

Param readout= log10 IC50; system= PHD1 (Homo sapiens (Human), UniProt Q96KS0); entry= O=C(O)CNC(=O)c1nc(Br)c2nc(Oc3ccccc3)ccc2c1O ; returns value.
1.61
